Can you tell me Stability at 24 hours for the items I'm about to list?
assay: Stability determination of amidite in solvent after 24 hours (HPLC-MS, UV 254 nm); format: physicochemical; details: solvent DCE; room temperature; grades 1-3, key not given

Report Stability at 24 hours for COc1ccc(C(OCC23COC(C(n4cnc5c(=O)[nH]c(N=CN(C)C)nc54)O2)C3OP2OC(c3ccccc3)C3CCCN32)(c2ccccc2)c2ccc(OC)cc2)cc1 (stereo not drawn) please. 1

Report Stability at 24 hours for COc1ccc(C(OCC23COC(C(n4cc(C)c(=O)[nH]c4=O)O2)C3OP2OC(c3ccccc3)C3CCCN32)(c2ccccc2)c2ccc(OC)cc2)cc1 [L-LNA T-DMF] please. 1

Report Stability at 24 hours for COc1ccc(C(OCC2OC(n3cc(C)c(=O)[nH]c3=O)CC2OP2OC(c3ccccc3)C3CCCN32)(c2ccccc2)c2ccc(OC)cc2)cc1 [L-DNA T-DMF] please. 1

Report Stability at 24 hours for COc1ccc(C(OC[C@@]23CO[C@@H]([C@H](n4cnc5c(=O)[nH]c(NC(=O)C(C)C)nc54)O2)[C@@H]3O[P@]2O[C@H](c3ccccc3)[C@@H]3CCCN32)(c2ccccc2)c2ccc(OC)cc2)cc1 please. 2

Report Stability at 24 hours for COc1ccc(C(OCC2OC(n3cc(C)c(=O)[nH]c3=O)CC2OP2OC(c3ccccc3)C3CCCN32)(c2ccccc2)c2ccc(OC)cc2)cc1 [D-DNA T-DMF] please. 1

Report Stability at 24 hours for COc1ccc(C(OCC23COC(C(n4cc(C)c(=O)[nH]c4=O)O2)C3OP2OC(c3ccccc3)C3CCCN32)(c2ccccc2)c2ccc(OC)cc2)cc1 [D-LNA T-DMF] please. 1

====

test: Stability determination of amidite in solvent after 24 hours (HPLC-MS, UV 254 nm); assay type: physicochemical; conditions: solvent THE; room temperature; grades 1-3, key not given
Measured parameter: Stability at 24 hours
// keep it numeric: no unit symbol after the value

Report Stability at 24 hours for COc1ccc(C(OCC2OC(n3cc(C)c(=O)[nH]c3=O)CC2OP2OC(c3ccccc3)C3CCCN32)(c2ccccc2)c2ccc(OC)cc2)cc1 [D-DNA T-DMF] please. 1

Report Stability at 24 hours for COc1ccc(C(OCC23COC(C(n4cc(C)c(=O)[nH]c4=O)O2)C3OP2OC(c3ccccc3)C3CCCN32)(c2ccccc2)c2ccc(OC)cc2)cc1 [L-LNA T-DMF] please. 1

Report Stability at 24 hours for COc1ccc(C(OCC2OC(n3cnc4c(=O)[nH]c(N=CN(C)C)nc43)CC2OP2OC(c3ccccc3)C3CCCN32)(c2ccccc2)c2ccc(OC)cc2)cc1 [D-DNA G-DMF] please. 3

====

experiment: Stability determination of amidite in solvent after 24 hours (HPLC-MS, UV 254 nm); type: physicochemical; conditions: solvent DCM; room temperature; grades 1-3, key not given
Measured parameter: Stability at 24 hours
// keep it numeric: no unit symbol after the value

Report Stability at 24 hours for COc1ccc(C(OCC23COC(C(n4cc(C)c(=O)[nH]c4=O)O2)C3OP2OC(c3ccccc3)C3CCCN32)(c2ccccc2)c2ccc(OC)cc2)cc1 [L-LNA T-DMF] please. 1

Report Stability at 24 hours for COc1ccc(C(OCC23COC(C(n4cnc5c(=O)[nH]c(N=CN(C)C)nc54)O2)C3OP2OC(c3ccccc3)C3CCCN32)(c2ccccc2)c2ccc(OC)cc2)cc1 [D-LNA G-DMF] please. 1

Report Stability at 24 hours for COc1ccc(C(OC[C@@]23CO[C@@H]([C@H](n4cnc5c(=O)[nH]c(NC(=O)C(C)C)nc54)O2)[C@@H]3O[P@]2O[C@H](c3ccccc3)[C@@H]3CCCN32)(c2ccccc2)c2ccc(OC)cc2)cc1 [L-LNA G-iBu] please. 2

Report Stability at 24 hours for COc1ccc(C(OCC2OC(n3cc(C)c(=O)[nH]c3=O)CC2OP2OC(c3ccccc3)C3CCCN32)(c2ccccc2)c2ccc(OC)cc2)cc1 [D-DNA T-DMF] please. 1

Report Stability at 24 hours for COc1ccc(C(OCC23COC(C(n4cc(C)c(=O)[nH]c4=O)O2)C3OP2OC(c3ccccc3)C3CCCN32)(c2ccccc2)c2ccc(OC)cc2)cc1 [D-LNA T-DMF] please. 1

Report Stability at 24 hours for COc1ccc(C(OCC2OC(n3cc(C)c(=O)[nH]c3=O)CC2OP2OC(c3ccccc3)C3CCCN32)(c2ccccc2)c2ccc(OC)cc2)cc1 [L-DNA T-DMF] please. 1

====

assay: Stability determination of amidite in solvent after 24 hours (HPLC-MS, UV 254 nm); format: physicochemical; settings: solvent MeCN:Toluene (1:1); room temperature; grades 1-3, key not given
Can you tell me Stability at 24 hours for the items I'm about to list?

Report Stability at 24 hours for COc1ccc(C(OCC23COC(C(n4cc(C)c(=O)[nH]c4=O)O2)C3OP2OC(c3ccccc3)C3CCCN32)(c2ccccc2)c2ccc(OC)cc2)cc1 [L-LNA T-DMF] please. 3

Report Stability at 24 hours for COc1ccc(C(OCC2OC(n3cc(C)c(=O)[nH]c3=O)CC2OP2OC(c3ccccc3)C3CCCN32)(c2ccccc2)c2ccc(OC)cc2)cc1 [L-DNA T-DMF] please. 3

Report Stability at 24 hours for COc1ccc(C(OCC2OC(n3cnc4c(=O)[nH]c(N=CN(C)C)nc43)CC2OP2OC(c3ccccc3)C3CCCN32)(c2ccccc2)c2ccc(OC)cc2)cc1 [L-DNA G-DMF] please. 3

====

assay: Stability determination of amidite in solvent after 24 hours (HPLC-MS, UV 254 nm); type: physicochemical; details: solvent Dioxane; room temperature; grades 1-3, key not given
Measured parameter: Stability at 24 hours
// keep it numeric: no unit symbol after the value

Report Stability at 24 hours for COc1ccc(C(OCC23COC(C(n4cnc5c(=O)[nH]c(N=CN(C)C)nc54)O2)C3OP2OC(c3ccccc3)C3CCCN32)(c2ccccc2)c2ccc(OC)cc2)cc1 (centres unmarked) please. 1

Report Stability at 24 hours for COc1ccc(C(OCC2OC(n3cc(C)c(=O)[nH]c3=O)CC2OP2OC(c3ccccc3)C3CCCN32)(c2ccccc2)c2ccc(OC)cc2)cc1 [D-DNA T-DMF] please. 1

Report Stability at 24 hours for COc1ccc(C(OC[C@@]23CO[C@@H]([C@H](n4cnc5c(=O)[nH]c(NC(=O)C(C)C)nc54)O2)[C@@H]3O[P@]2O[C@H](c3ccccc3)[C@@H]3CCCN32)(c2ccccc2)c2ccc(OC)cc2)cc1 please. 1

Report Stability at 24 hours for COc1ccc(C(OCC23COC(C(n4cc(C)c(=O)[nH]c4=O)O2)C3OP2OC(c3ccccc3)C3CCCN32)(c2ccccc2)c2ccc(OC)cc2)cc1 [D-LNA T-DMF] please. 2

Report Stability at 24 hours for COc1ccc(C(OCC23COC(C(n4cc(C)c(=O)[nH]c4=O)O2)C3OP2OC(c3ccccc3)C3CCCN32)(c2ccccc2)c2ccc(OC)cc2)cc1 [L-LNA T-DMF] please. 1

====

assay: Stability determination of amidite in solvent after 24 hours (HPLC-MS, UV 254 nm); format: physicochemical; conditions: solvent THE; room temperature; grades 1-3, key not given
Measured parameter: Stability at 24 hours
// keep it numeric: no unit symbol after the value

Report Stability at 24 hours for COc1ccc(C(OCC2OC(n3cnc4c(=O)[nH]c(N=CN(C)C)nc43)CC2OP2OC(c3ccccc3)C3CCCN32)(c2ccccc2)c2ccc(OC)cc2)cc1 [L-DNA G-DMF] please. 3

Report Stability at 24 hours for COc1ccc(C(OC[C@@]23CO[C@@H]([C@H](n4cnc5c(=O)[nH]c(NC(=O)C(C)C)nc54)O2)[C@@H]3O[P@]2O[C@H](c3ccccc3)[C@@H]3CCCN32)(c2ccccc2)c2ccc(OC)cc2)cc1 [L-LNA G-iBu] please. 2

Report Stability at 24 hours for COc1ccc(C(OCC2OC(n3cc(C)c(=O)[nH]c3=O)CC2OP2OC(c3ccccc3)C3CCCN32)(c2ccccc2)c2ccc(OC)cc2)cc1 [L-DNA T-DMF] please. 2

Report Stability at 24 hours for COc1ccc(C(OCC23COC(C(n4cnc5c(=O)[nH]c(N=CN(C)C)nc54)O2)C3OP2OC(c3ccccc3)C3CCCN32)(c2ccccc2)c2ccc(OC)cc2)cc1 [D-LNA G-DMF] please. 2

Report Stability at 24 hours for COc1ccc(C(OCC23COC(C(n4cc(C)c(=O)[nH]c4=O)O2)C3OP2OC(c3ccccc3)C3CCCN32)(c2ccccc2)c2ccc(OC)cc2)cc1 [D-LNA T-DMF] please. 1

====

assay: Stability determination of amidite in solvent after 24 hours (HPLC-MS, UV 254 nm); type: physicochemical; conditions: solvent MeCN:DCM (1:1); room temperature; grades 1-3, key not given
Measured parameter: Stability at 24 hours
// keep it numeric: no unit symbol after the value

Report Stability at 24 hours for COc1ccc(C(OCC2OC(n3cc(C)c(=O)[nH]c3=O)CC2OP2OC(c3ccccc3)C3CCCN32)(c2ccccc2)c2ccc(OC)cc2)cc1 [L-DNA T-DMF] please. 3

Report Stability at 24 hours for COc1ccc(C(OCC23COC(C(n4cc(C)c(=O)[nH]c4=O)O2)C3OP2OC(c3ccccc3)C3CCCN32)(c2ccccc2)c2ccc(OC)cc2)cc1 [L-LNA T-DMF] please. 1

Report Stability at 24 hours for COc1ccc(C(OCC23COC(C(n4cc(C)c(=O)[nH]c4=O)O2)C3OP2OC(c3ccccc3)C3CCCN32)(c2ccccc2)c2ccc(OC)cc2)cc1 [D-LNA T-DMF] please. 1
